Target: indoleamine 2, 3-dioxygenase (IDO1) (Homo sapiens)
Sequence (P14902 whole entry): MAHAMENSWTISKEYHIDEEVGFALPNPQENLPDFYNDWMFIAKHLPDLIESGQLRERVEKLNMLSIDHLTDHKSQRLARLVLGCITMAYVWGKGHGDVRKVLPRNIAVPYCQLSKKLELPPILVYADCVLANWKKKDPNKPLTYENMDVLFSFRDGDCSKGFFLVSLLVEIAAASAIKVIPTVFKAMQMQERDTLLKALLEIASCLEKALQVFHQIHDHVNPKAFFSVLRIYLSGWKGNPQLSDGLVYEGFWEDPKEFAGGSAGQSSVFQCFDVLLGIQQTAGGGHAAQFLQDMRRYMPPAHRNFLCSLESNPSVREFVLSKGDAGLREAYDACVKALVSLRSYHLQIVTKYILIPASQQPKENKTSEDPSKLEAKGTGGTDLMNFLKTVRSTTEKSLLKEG
Test: IDO1 PBMC RapidFire MS assay (kynurenine detection by mass spectrometry)
Assay type: cell-based
Set-up: to induce the expression of indoleamine 2, 3-dioxygenase (IDO1); host or cells: human PBMC stimulated with IFN-gamma and LPS
Settings: human PBMC stimulated with IFN-γ and LPS, 2 days, pIC50, read-out: PBMC PXC50 (converted)
Protocol: IDO1 PBMC RapidFire MS Assay Compounds of the present invention were tested via high-throughput cellular assays utilizing detection of kynurenine via mass spectrometry and cytotoxicity as end-points. […] Cellular toxicity due to the effect of compound treatment was measured using CellTiter-Glo® reagent (CTG) (Promega Corporation, Madison, Wis.), which is based on luminescent detection of ATP, an indicator of metabolically active cells. […]
compounds and their reported log10 of IC50
Lab note - IC50 converted to log10 from values in nM.

Sure, the documented log10 of IC50 for CC(C)CN(c1ccc([C@H](C)CC(=O)O)cc1Nc1ccc(C(F)(F)F)cn1)C1CCCCC1 is 0.40

Sure, the documented log10 of IC50 for CC(C)CN(c1ccc([C@H](C)CC(=O)NO)cc1Nc1nc(C(F)(F)F)ns1)C1CCOCC1 is 1.30

Sure, the documented log10 of IC50 for CC(C)CN(CC(C)C)c1ccc([C@H](C)CC(=O)NS(C)(=O)=O)cc1Nc1nc(C(F)(F)F)ns1 is 1.00

Sure, the documented log10 of IC50 for CC(C)CN(c1ccc([C@H](C)CC(=O)O)cc1Nc1ccc(Cl)nc1)[C@H]1CC[C@@H](O)CC1 is 0.90

====

Biological target: UniProt P14902
Experiment: IDO1 PBMC RapidFire MS assay (kynurenine detection by mass spectrometry)
Type: cell-based
Set-up: to induce the expression of indoleamine 2, 3-dioxygenase (IDO1); host or cells: human PBMC stimulated with IFN-gamma and LPS
Details: human PBMC stimulated with IFN-γ and LPS, 2 days, pIC50, read-out: PBMC PXC50 (converted)
PROPERTY_NAME: IC50 (µM)
Note: unit µM is implicit; provide only the numeric part.

- MOLECULE: "CC(C)CN(c1ccc([C@H](C)CC(=O)O)cc1Nc1ccc(C(F)(F)F)nc1)C1CCOCC1"
  PROPERTY_NAME: "IC50"
  OBS_VALUE: 0.000631
- MOLECULE: "COCc1nnc(Nc2cc([C@H](C)CC(=O)O)ccc2N(CC(C)C)C2CCOCC2)s1"
  PROPERTY_NAME: "IC50"
  OBS_VALUE: 0.0398
- MOLECULE: "CC(C)CN(c1ccc([C@H](C)CC(=O)O)cc1Nc1cnc(C(N)=O)nc1)C1CCOCC1"
  PROPERTY_NAME: "IC50"
  OBS_VALUE: 0.501
- MOLECULE: "COCc1nnc(Nc2cc([C@H](C)CC(=O)O)ccc2N(CC(C)C)C2CCCCC2)[nH]1"
  PROPERTY_NAME: "IC50"
  OBS_VALUE: 0.00794
- MOLECULE: "CC(C)CN(CC(C)C)c1ccc([C@H](C)CC(=O)O)cc1Nc1ccc(=O)n(C)c1"
  PROPERTY_NAME: "IC50"
  OBS_VALUE: 2

Record CC(C)CN(c1ccc(C(C)CC(=O)O)cc1NC1=N[C@@H](C)CO1)C1CCCCC1 (stereo partly shown) / UniProt P14902, IC50 recorded as 3.16

Record CC(C)CN(CC(C)C)c1ccc([C@H](C)CC(=O)O)cc1Nc1nnc(C(F)(F)F)s1 / UniProt P14902, IC50 recorded as 0.00398

Record CC(C)CN(c1ccc([C@H](C)CC(=O)O)cc1Nc1ccc(Cl)c(F)n1)C1CCOCC1 / UniProt P14902, IC50 recorded as 0.00126

Record CO[C@H]1CC[C@H](N(CC(C)C)c2ccc([C@H](C)CC(=O)O)cc2Nc2ccc(Cl)cn2)CC1 / UniProt P14902, IC50 recorded as 0.00316

Record Cc1nc(Nc2cc([C@H](C)CC(=O)O)ccc2N(CC(C)C)C2CCOCC2)ccc1Cl / UniProt P14902, IC50 recorded as 0.0398

Record CC(C)CN(c1cc(F)c([C@H](C)CC(=O)O)cc1Nc1ccc(Cl)cn1)C1CCOCC1 / UniProt P14902, IC50 recorded as 0.000631

Record CC(C)CN(c1ccc([C@H](C)CC(=O)O)cc1Nc1ccc(C(N)=O)cn1)C1CCOCC1 / UniProt P14902, IC50 recorded as 2.51

meta.source: patent US10899754B2
